Give measured inhibition for each item. Keep answers brief.
System: Serine/threonine-protein kinase B-raf (Homo sapiens), P15056 [V600E]
Sequence (P15056 whole entry V600E): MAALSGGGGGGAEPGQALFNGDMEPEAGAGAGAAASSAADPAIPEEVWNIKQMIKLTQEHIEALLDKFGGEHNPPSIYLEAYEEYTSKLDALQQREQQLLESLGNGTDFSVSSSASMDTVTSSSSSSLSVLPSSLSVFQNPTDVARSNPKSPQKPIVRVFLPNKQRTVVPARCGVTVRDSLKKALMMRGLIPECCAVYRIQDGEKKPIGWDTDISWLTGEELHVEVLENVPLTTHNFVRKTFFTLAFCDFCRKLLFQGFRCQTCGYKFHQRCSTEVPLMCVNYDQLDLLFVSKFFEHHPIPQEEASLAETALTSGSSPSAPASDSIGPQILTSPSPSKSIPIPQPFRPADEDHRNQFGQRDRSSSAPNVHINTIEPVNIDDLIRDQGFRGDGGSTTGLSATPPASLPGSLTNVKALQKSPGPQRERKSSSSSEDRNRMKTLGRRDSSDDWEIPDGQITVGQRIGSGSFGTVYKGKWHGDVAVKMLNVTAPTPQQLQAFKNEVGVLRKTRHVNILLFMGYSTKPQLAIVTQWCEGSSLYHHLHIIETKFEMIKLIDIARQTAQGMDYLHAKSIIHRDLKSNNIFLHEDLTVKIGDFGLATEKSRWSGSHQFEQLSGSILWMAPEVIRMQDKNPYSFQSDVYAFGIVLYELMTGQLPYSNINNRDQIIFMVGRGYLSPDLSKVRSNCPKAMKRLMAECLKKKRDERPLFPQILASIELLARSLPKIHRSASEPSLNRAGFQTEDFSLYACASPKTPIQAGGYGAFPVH
PROTOCOL_DESCRIPTION: Inhibition of BRAF V600E mutant at 10 uM by ELISA
# include the unit after the value

Use these answered entries as a reference point.
1. CS(=O)(=O)N(CCC#N)Cc1ccc(/C=C2/C(=O)NC(=S)N(c3ccc(Cl)c(Cl)c3)C2=O)o1: 97%
2. Cc1ccc(N2C(=O)/C(=C\c3ccc(CN(CCC#N)S(C)(=O)=O)o3)C(=O)NC2=S)cc1: 99%
3. Cc1ccc(N2C(=O)/C(=C\c3ccc(-c4ccc(C(=O)O)c(Cl)c4)o3)C(=O)NC2=S)cc1: 99%
4. Cc1ccc(N2C(=O)/C(=C\c3ccc(-c4ccc(F)cc4)o3)C(=O)NC2=S)cc1: 74%
5. N#Cc1ccccc1-c1ccc(C=C2C(=O)NC(=S)NC2=O)o1: 93%
6. CCCS(=O)(=O)Nc1ccc(F)c(C(=O)c2c[nH]c3ncc(-c4ccc(Cl)cc4)cc23)c1F: 92%

For the 2 compounds below, give their inhibition values.
1. COc1ccc(C=C2C(=O)NC(=S)NC2=O)cc1OC(=O)c1cccc(Cl)c1
2. CCOc1ccc(C=C2C(=O)NC(=S)NC2=O)cc1Cl

Ans.
1. 88%
2. 71%

Qu. // lookup inhibition | system=Serine/threonine-protein kinase B-raf (Homo sapiens), P15056 [V600E] | key= Cc1cccc(N2C(=O)/C(=C\c3ccc(CN(CCC#N)S(C)(=O)=O)o3)C(=O)NC2=S)c1
Ans. 84%

---

Tested on: Serine/threonine-protein kinase B-raf (Homo sapiens), P15056 [V600E]
PROTOCOL_DESCRIPTION: Inhibition of BRAF V600E mutant at 10 uM by ELISA
MEASURED_QUANTITY: inhibition (%)
One number for each entry, in %.

1) O=C1NC(=S)NC(=O)C1=Cc1ccc(OCc2ccccc2)c(Cl)c1: 91
2) COC(=O)c1cc(Br)ccc1-c1ccc(C=C2C(=O)NC(=S)NC2=O)o1: 86
3) O=C1NC(=S)N(c2ccc(Br)cc2)C(=O)/C1=C\c1ccc(-c2cccc(C(=O)O)c2)o1: 100

Moving on to the next compound.
Qu. Which inhibition value is on record for Cc1ccc(N2C(=O)/C(=C\c3ccc(-c4cccc(C(=O)O)c4)o3)C(=O)NC2=S)cc1 ?
Ans. 98

---

Test system: Serine/threonine-protein kinase B-raf (Homo sapiens), P15056 [V600E]
PROTOCOL_DESCRIPTION: Inhibition of BRAF V600E mutant at 1 uM by ELISA
Exercise: state measured inhibition for each of the compounds provided.
Don't forget the unit after the number, please.

For every item below, please supply its inhibition.
1. Cc1cccc(C)c1OCCOc1ccc(C=C2C(=O)NC(=S)NC2=O)cc1
2. COc1cccc(N2C(=O)/C(=C\c3ccc(CN(CCC#N)S(C)(=O)=O)o3)C(=O)NC2=S)c1
3. O=C1NC(=S)NC(=O)C1=Cc1ccc(-c2cccc([N+](=O)[O-])c2)o1

Ans.
1. 42%
2. 32%
3. 48%

---

ASSAY_TARGET: Serine/threonine-protein kinase B-raf (Homo sapiens, UniProt P15056, V600E)
Sequence (P15056 2-766 V600E limits assumed): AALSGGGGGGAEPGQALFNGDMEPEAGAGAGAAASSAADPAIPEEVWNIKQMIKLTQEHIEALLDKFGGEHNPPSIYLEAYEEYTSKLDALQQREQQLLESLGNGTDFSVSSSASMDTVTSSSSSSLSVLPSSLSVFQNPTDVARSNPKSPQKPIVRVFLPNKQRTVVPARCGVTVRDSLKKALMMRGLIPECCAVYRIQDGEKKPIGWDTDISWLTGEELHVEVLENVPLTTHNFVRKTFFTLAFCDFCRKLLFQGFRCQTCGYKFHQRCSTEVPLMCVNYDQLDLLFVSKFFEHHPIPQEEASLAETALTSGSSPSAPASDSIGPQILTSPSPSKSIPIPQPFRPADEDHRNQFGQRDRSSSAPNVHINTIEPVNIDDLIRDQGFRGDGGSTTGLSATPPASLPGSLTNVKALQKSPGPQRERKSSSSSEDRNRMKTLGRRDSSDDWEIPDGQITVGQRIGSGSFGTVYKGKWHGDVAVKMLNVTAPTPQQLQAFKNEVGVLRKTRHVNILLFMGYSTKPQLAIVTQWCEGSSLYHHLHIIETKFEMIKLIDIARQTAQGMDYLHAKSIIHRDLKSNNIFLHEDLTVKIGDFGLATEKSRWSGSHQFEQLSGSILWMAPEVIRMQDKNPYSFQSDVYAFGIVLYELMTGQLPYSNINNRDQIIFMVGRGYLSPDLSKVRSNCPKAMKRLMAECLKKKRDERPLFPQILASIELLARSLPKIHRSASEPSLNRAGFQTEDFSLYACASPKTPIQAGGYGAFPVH
PROTOCOL_DESCRIPTION: Inhibition of BRAF V600E mutant by ELISA
Please respond with reported IC50 for every item in the list.

1) O=C1NC(=S)N(c2ccc(Br)cc2)C(=O)/C1=C\c1ccc(-c2ccccc2C(=O)O)o1: 3.45 µM
2) Cc1ccc(N2C(=O)/C(=C\c3ccc(CN(CCC#N)S(C)(=O)=O)o3)C(=O)NC2=S)cc1: 0.97 µM
3) CS(=O)(=O)N(CCC#N)Cc1ccc(/C=C2/C(=O)NC(=S)N(c3ccc(Br)cc3)C2=O)o1: 0.44 µM
4) O=C1NC(=S)N(c2ccc(Br)cc2)C(=O)/C1=C\c1ccc(-c2ccc(C(=O)O)cc2)o1: 2.23 µM
5) O=C1NC(=S)N(c2cccc(Cl)c2Cl)C(=O)/C1=C\c1ccc(-c2ccc(C(=O)O)cc2)o1: 1.54 µM

Report IC50 for every entry below.
1. CCOC(=O)c1ccccc1-c1ccc(/C=C2/C(=O)NC(=S)N(c3ccc(C)cc3)C2=O)o1
2. O=C1NC(=S)N(c2ccc(Br)cc2)C(=O)/C1=C\c1ccc(-c2ccc(C(=O)O)c(Cl)c2)o1
3. O=C1NC(=S)N(c2ccc(Br)cc2)C(=O)/C1=C\c1ccc(-c2cccc(C(=O)O)c2)o1
4. O=C1NC(=S)NC(=O)C1=Cc1ccc(-c2ccccc2[N+](=O)[O-])o1
5. Cc1ccc(N2C(=O)/C(=C\c3ccc(-c4ccc(C(=O)O)cc4)o3)C(=O)NC2=S)cc1
6. N#Cc1ccccc1-c1ccc(C=C2C(=O)NC(=S)NC2=O)o1
7. CCOc1ccc(N2C(=O)/C(=C\c3ccc(CN(CCC#N)S(C)(=O)=O)o3)C(=O)NC2=S)cc1

Ans.
1. 1.02 µM
2. 4.75 µM
3. 1.8 µM
4. 0.67 µM
5. 1.6 µM
6. 0.74 µM
7. 1.14 µM

For each listed entry, give its IC50.
1. Cc1ccc(N2C(=O)/C(=C\c3ccc(CN(CCC#N)S(C)(=O)=O)o3)C(=O)NC2=S)cc1Cl
2. O=C1NC(=S)NC(=O)C1=Cc1ccc(-c2ccc([N+](=O)[O-])cc2)o1
3. Cc1cccc(N2C(=O)/C(=C\c3ccc(CN(CCC#N)S(C)(=O)=O)o3)C(=O)NC2=S)c1

Ans.
1. 0.31 µM
2. 0.73 µM
3. 0.5 µM
